The reader will find reported solubility (mole fraction) values listed item by item below.
# CONDITION PARAMETERS: in n-hexane, 313.15 K
OUTCOME MEASURE: solubility (mole fraction)

>>> print(df.to_string())
                                   molecule             outcome_measure  endpoint_result
0  CC(C)c1ccc(N=C2[Se]CC3CCCN2C3)cc1 (stereo not drawn)  solubility (mole fraction)         0.000819
1  Cc1ccc(N=C2[Se]CC3CCCN2C3)cc1Cl (stereo not drawn)  solubility (mole fraction)         0.000595
2  Fc1ccc(N=C2[Se]CC3CCCN2C3)cc1 (stereo not drawn)  solubility (mole fraction)          0.00143

----------
# CONDITION PARAMETERS: in n-hexane, 303.15 K
Below: a set of entries, each annotated with reported solubility (mole fraction).
OUTCOME MEASURE: solubility (mole fraction)

>>> df
                                   compound  endpoint_result
0  Cc1ccc(N=C2[Se]CC3CCCN2C3)cc1Cl (stereo not drawn)         0.000567
1  Fc1ccc(N=C2[Se]CC3CCCN2C3)cc1 (stereo not drawn)          0.00128
2  CC(C)c1ccc(N=C2[Se]CC3CCCN2C3)cc1 (stereo not drawn)         0.000643
